- Tested on: Fibroblast
- measurement protocol: Multiplex assay against human fibroblast
- Assay type: toxicity, cell-based
- condition summary: 12 h, 1 µM, compound concentration 1 uM, replicate 2
readout kind: Population Mitochondria Different-Phenotype (%)

compound	endpoint value
CCCN1CCC[C@@H]2Cc3n[nH]cc3C[C@H]21.Cl [QUINPIROLE HYDROCHLORIDE]	6%
CN1CCN2c3ncccc3Cc3ccccc3C2C1 (centres undefined)	5%
O=C(NCCO)c1cccc(-c2cc(Nc3ccc(OC(F)(F)F)cc3)ncn2)c1	8%
Cc1ccc(C(C)(O)c2nc3ccccc3s2)c(C)c1 (centres undefined)	6%
c1cc(OCCCN2CCCCC2)ccc1CN1CCCCC1	5%
COc1cc(C(=O)N(CCCc2ccccc2)Cc2ccc(CC(=O)O)cc2)cc(OC)c1C	5%
CCCn1c(=O)c2[nH]c(C3CCCC3)nc2n(CCC)c1=O	10%
Cc1nc2ccc(Oc3ccc(F)cc3)cc2c(=O)n1C[C@H]1CCCN(C(C)C)C1.Cl	8%
CSCC[C@H](NC=O)C(=O)N[C@@H](CC(C)C)C(=O)N[C@@H](Cc1ccccc1)C(=O)O	4%

---

Attribute: Population Healthy Nuclei (%)
- Test system: HEK-293T
- measurement protocol: Multiplex assay against HEK293T
- Format: toxicity, cell-based
- condition summary: human, 24 h, 10 µM, compound concentration 10 uM, replicate 2

molecule	test target	unit descriptor	Population Healthy Nuclei (%)
Cc1ccc(/C(=C\CN2CCCC2)c2ccccn2)cc1	HEK-293T	%	80
CCCn1c(=O)c2[nH]c(C3CCCC3)nc2n(CCC)c1=O	HEK-293T	%	79
Cc1ccccc1C(=O)Nc1ccc(C(=O)N2CCCC(N(C)C)c3ccccc32)cc1.Cl (stereo not drawn)	HEK-293T	%	73

---

- System: HEK-293T
- measurement protocol: Multiplex assay against HEK293T
- Assay type: toxicity, cell-based
- condition summary: human, 48 h, 10 µM, compound concentration 10 uM, replicate 1

molecule	Population Healthy Nuclei (%)
C[C@H]1[C@H]2CC[C@H]3[C@@H]4CC=C5C[C@@H](N(C)C)CC[C@]5(C)[C@H]4CC[C@]23CN1C [CONESSINE]	78%
Cc1ccc(-c2ccc(F)cc2COc2ccc(CCC(=O)O)cc2)cc1	78%
Cc1nc2ccc(Oc3ccc(F)cc3)cc2c(=O)n1C[C@H]1CCCN(C(C)C)C1.Cl	74%
CCNC1(C(N)=O)CCN(c2ncnc3c2nc(-c2ccccc2Cl)n3-c2ccc(Cl)cc2)CC1 [OTENABANT]	71%
CNC[C@H](O)c1ccc(O)c(O)c1 [EPINEPHRINE]	72%
CCCC(CCC)C(=O)O [VALPROIC ACID]	79%
Cc1ccccc1C(=O)Nc1ccc(C(=O)N2CCCC(N(C)C)c3ccccc32)cc1.Cl (configuration not stated)	69%
C[C@@H]1C[C@H]2[C@@H]3CCC4=CC(=O)C=C[C@]4(C)[C@@]3(F)[C@@H](O)C[C@]2(C)[C@@]1(O)C(=O)CO [DEXAMETHASONE]	76%
CCCn1c(=O)c2[nH]c(C3CCCC3)nc2n(CCC)c1=O	76%
CCCN1CCC[C@@H]2Cc3n[nH]cc3C[C@H]21.Cl [QUINPIROLE HYDROCHLORIDE]	78%
Cl.Clc1ccc2nsnc2c1NC1=NCCN1 [TIZANIDINE HYDROCHLORIDE]	74%
CN1CCN2c3ncccc3Cc3ccccc3C2C1 (configuration not stated) [MIRTAZAPINE]	74%

---

Attribute: Population Fragmented Nuclei (%)
- System: Fibroblast
- measurement protocol: Multiplex assay against human fibroblast
- Format: toxicity, cell-based
- condition summary: 48 h, 1 µM, compound concentration 1 uM, replicate 2
readout kind: Population Fragmented Nuclei (%)

molecule	readout kind	endpoint value
C[C@H]1[C@H]2CC[C@H]3[C@@H]4CC=C5C[C@@H](N(C)C)CC[C@]5(C)[C@H]4CC[C@]23CN1C	Population Fragmented Nuclei (%)	37
C[C@@H]1C[C@H]2[C@@H]3CCC4=CC(=O)C=C[C@]4(C)[C@@]3(F)[C@@H](O)C[C@]2(C)[C@@]1(O)C(=O)CO	Population Fragmented Nuclei (%)	38
N#Cc1c(N)nc(SCc2csc(-c3ccc(Cl)cc3)n2)c(C#N)c1-c1ccc(OCCO)cc1	Population Fragmented Nuclei (%)	38
O=S(=O)(c1ccccc1)c1cnc2c(N3CCNCC3)cccc2c1 [INTEPIRDINE]	Population Fragmented Nuclei (%)	39
CCNC1(C(N)=O)CCN(c2ncnc3c2nc(-c2ccccc2Cl)n3-c2ccc(Cl)cc2)CC1	Population Fragmented Nuclei (%)	33
COc1cc(NC(=O)CCN2CCC(OC(=O)Nc3ccccc3-c3ccccc3)CC2)c(Cl)cc1CNC[C@H](O)c1ccc(O)c2[nH]c(=O)ccc12	Population Fragmented Nuclei (%)	29
O=C1COc2nccc(-c3ccccc3F)c2CN1Cc1cc(C(F)(F)F)cc(C(F)(F)F)c1	Population Fragmented Nuclei (%)	29
CCCC(CCC)C(=O)O	Population Fragmented Nuclei (%)	36
CC1(COc2ccc3c(c2)ncn3-c2ccc3cccc(N4CCC(N)CC4)c3n2)COC1	Population Fragmented Nuclei (%)	44
O=C(NCC(=O)N1CC[C@H](N[C@H]2CC[C@@](O)(c3ccc(-c4ncccn4)cn3)CC2)C1)c1cccc(C(F)(F)F)c1	Population Fragmented Nuclei (%)	36
CC[C@H]1OC(=O)[C@H](C)[C@@H](O[C@H]2C[C@@](C)(OC)[C@@H](O)[C@H](C)O2)[C@H](C)[C@@H](O[C@@H]2O[C@H](C)C[C@H](N(C)C)[C@H]2O)[C@@]2(C)CC(C)=C(O2)[C@H](C)[C@@H](O)[C@]1(C)O	Population Fragmented Nuclei (%)	32
CCOc1c2c(c(OCC)c3ncccc13)CN(c1ccc(CS(=O)(=O)NC(=O)Cc3ccccc3OC)cc1C)C2=O	Population Fragmented Nuclei (%)	47
Cc1ccccc1C(=O)Nc1ccc(C(=O)N2CCCC(N(C)C)c3ccccc32)cc1.Cl (centres undefined)	Population Fragmented Nuclei (%)	32
Cc1ccc(F)cc1C(=O)Nc1ccc(C(=O)N2Cc3cccn3Cc3ccccc32)c(Cl)c1	Population Fragmented Nuclei (%)	37

---

- System: Fibroblast
- measurement protocol: Multiplex assay against human fibroblast
- Format: toxicity, cell-based
- condition summary: 48 h, 1 µM, compound concentration 1 uM, replicate 2
Attribute: Total Cell Count

mol smiles	Total Cell Count
O=C1COc2nccc(-c3ccccc3F)c2CN1Cc1cc(C(F)(F)F)cc(C(F)(F)F)c1	143
CC[C@H]1OC(=O)[C@H](C)[C@@H](O[C@H]2C[C@@](C)(OC)[C@@H](O)[C@H](C)O2)[C@H](C)[C@@H](O[C@@H]2O[C@H](C)C[C@H](N(C)C)[C@H]2O)[C@@]2(C)CC(C)=C(O2)[C@H](C)[C@@H](O)[C@]1(C)O	173
CN(C)CCCc1cc(C(=O)Nc2ccc(-c3ccncc3)cc2)ccc1O.Cl.Cl	111
CC(C)(C)c1ccc(S(=O)(=O)Nc2ccc(Cl)cc2C(=O)c2cc[n+]([O-])cc2)cc1	145

---

- System: Fibroblast
- measurement protocol: Multiplex assay against human fibroblast
- Assay type: toxicity, cell-based
- condition summary: 24 h, 1 µM, compound concentration 1 uM, replicate 2
Threshold check on Population Membrane Permeable-Phenotype (%): at or above 8% gives Met, strictly below gives Not met.

compound	discrete label
c1cc(OCCCN2CCCCC2)ccc1CN1CCCCC1 [JNJ-5207852]	Not met
CCCC(CCC)C(=O)O [VALPROIC ACID]	Not met
CN(C)CCCc1cc(C(=O)Nc2ccc(-c3ccncc3)cc2)ccc1O.Cl.Cl	Not met
CCOc1c2c(c(OCC)c3ncccc13)CN(c1ccc(CS(=O)(=O)NC(=O)Cc3ccccc3OC)cc1C)C2=O	Met

---

- System: U2OS
- measurement protocol: Multiplex assay against U2OS
- Format: toxicity, cell-based
- condition summary: human, 12 h, 10 µM, compound concentration 10 uM, replicate 2
readout kind: Population Pyknosed Nuclei (%)

compound	readout kind	endpoint value
Cc1ccc(-c2ccc(F)cc2COc2ccc(CCC(=O)O)cc2)cc1	Population Pyknosed Nuclei (%)	10%
CCCC(CCC)C(=O)O [VALPROIC ACID]	Population Pyknosed Nuclei (%)	7%
Oc1c(CN2CCN(c3ccccn3)CC2)cc(Cl)c2cccnc12	Population Pyknosed Nuclei (%)	13%
CNC[C@H](O)c1ccc(O)c(O)c1 [EPINEPHRINE]	Population Pyknosed Nuclei (%)	15%

---

- Tested on: Fibroblast
- measurement protocol: Multiplex assay against human fibroblast
- Type: toxicity, cell-based
- condition summary: 48 h, 10 µM, compound concentration 10 uM, replicate 2
Attribute: Population Tubulin-Different-Phenotype (%)
readout kind: Population Tubulin-Different-Phenotype (%)

compound	test target	endpoint value
C[C@H](NC(=O)c1c(C(F)F)nn(C)c1Oc1cccc(C(F)(F)F)c1)c1ccc(C(=O)O)cc1	Fibroblast	50
CN1CCN(c2nc3cc(C(F)(F)F)ccc3n3cccc23)CC1.O=C(O)/C=C\C(=O)O.O=C(O)/C=C\C(=O)O	Fibroblast	85
O=C(O)Cc1ccccc1Nc1c(Cl)cccc1Cl	Fibroblast	53
O=C(NCCO)c1cccc(-c2cc(Nc3ccc(OC(F)(F)F)cc3)ncn2)c1	Fibroblast	86
Cc1ccc(F)cc1C(=O)Nc1ccc(C(=O)N2Cc3cccn3Cc3ccccc32)c(Cl)c1	Fibroblast	78
O=S(=O)(c1ccccc1)c1cnc2c(N3CCNCC3)cccc2c1 [INTEPIRDINE]	Fibroblast	57
CC(=O)NCCc1c(Cc2ccccc2)[nH]c2ccccc12	Fibroblast	50
COc1cc(NC(=O)CCN2CCC(OC(=O)Nc3ccccc3-c3ccccc3)CC2)c(Cl)cc1CNC[C@H](O)c1ccc(O)c2[nH]c(=O)ccc12	Fibroblast	76
CNC[C@H](O)c1ccc(O)c(O)c1 [EPINEPHRINE]	Fibroblast	46
CCCC(CCC)C(=O)O	Fibroblast	46
N[C@@]1(C(=O)O)CO[C@H]2[C@H](C(=O)O)[C@H]21	Fibroblast	47
CN(C)CCCc1cc(C(=O)Nc2ccc(-c3ccncc3)cc2)ccc1O.Cl.Cl	Fibroblast	39
O=C(O)c1cc2ccccc2c(Cc2c(O)c(C(=O)O)cc3ccccc23)c1O	Fibroblast	28
C[C@@H]1C[C@H]2[C@@H]3CCC4=CC(=O)C=C[C@]4(C)[C@@]3(F)[C@@H](O)C[C@]2(C)[C@@]1(O)C(=O)CO	Fibroblast	39
